Values were extracted from the supplement of paper PMC10065799.

# key: entry, value: phosphorylation enrichment
Target: EPHB2 (UniProt P29323)
Sequence (P29323 whole entry, looked up): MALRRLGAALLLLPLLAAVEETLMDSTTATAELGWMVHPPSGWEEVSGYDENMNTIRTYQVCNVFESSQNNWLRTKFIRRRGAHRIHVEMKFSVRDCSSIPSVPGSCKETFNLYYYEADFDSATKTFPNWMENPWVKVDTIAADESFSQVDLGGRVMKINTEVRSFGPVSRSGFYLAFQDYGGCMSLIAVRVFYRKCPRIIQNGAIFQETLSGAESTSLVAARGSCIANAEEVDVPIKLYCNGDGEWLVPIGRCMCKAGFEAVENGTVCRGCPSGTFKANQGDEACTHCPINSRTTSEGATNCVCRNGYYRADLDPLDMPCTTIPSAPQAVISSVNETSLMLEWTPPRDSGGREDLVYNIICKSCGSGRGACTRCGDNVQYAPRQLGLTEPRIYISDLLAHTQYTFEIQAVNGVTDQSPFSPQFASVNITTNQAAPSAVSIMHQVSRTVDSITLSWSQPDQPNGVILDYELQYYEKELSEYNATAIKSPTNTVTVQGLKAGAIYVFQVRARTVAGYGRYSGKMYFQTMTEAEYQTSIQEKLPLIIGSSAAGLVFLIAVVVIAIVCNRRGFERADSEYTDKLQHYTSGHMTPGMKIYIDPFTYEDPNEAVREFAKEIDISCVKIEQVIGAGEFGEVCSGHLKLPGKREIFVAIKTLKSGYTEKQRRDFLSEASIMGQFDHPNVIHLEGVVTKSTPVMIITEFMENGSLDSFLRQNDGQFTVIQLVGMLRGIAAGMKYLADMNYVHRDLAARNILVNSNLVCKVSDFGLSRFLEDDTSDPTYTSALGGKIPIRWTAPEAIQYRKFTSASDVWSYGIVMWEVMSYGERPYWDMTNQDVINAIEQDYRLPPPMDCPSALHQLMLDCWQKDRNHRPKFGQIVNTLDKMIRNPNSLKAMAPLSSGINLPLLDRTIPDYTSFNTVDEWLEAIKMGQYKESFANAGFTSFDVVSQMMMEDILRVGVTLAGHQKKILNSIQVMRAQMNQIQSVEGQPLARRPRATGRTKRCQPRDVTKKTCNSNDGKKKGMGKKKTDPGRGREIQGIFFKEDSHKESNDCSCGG
Assay: phosphorylation enrichment, bacterial display (enrichment ratio); higher = better substrate or ligand; peptides without Tyr show the background;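 also: 11-residue human phosphosite peptides and single-mutation variants displayed on the E. coli surface, counted by deep sequencing, each peptide's frequency after selection divided by its frequency in the unselected input library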;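 also: frequency after pTyr selection over input frequency; kinase dosed for 20-30% of maximal phosphorylation in three min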

- polymer_sequence: "ITSLLYHVVGW [GBA_Y412_N409S]"
  measured_target: "EPHB2 (UniProt P29323)"
  phosphorylation enrichment: 2.99
- polymer_sequence: "FVSAAYVKKLD [SPTAN1_Y1020_P1017S]"
  measured_target: "EPHB2 (UniProt P29323)"
  phosphorylation enrichment: 0.618
- polymer_sequence: "AGTILYHAHLG [ASS1_Y291_D296G]"
  measured_target: "EPHB2 (UniProt P29323)"
  phosphorylation enrichment: 0.633
- polymer_sequence: "PFTRNYFVWAV [CYBA_Y87_R90W_YF]"
  measured_target: "EPHB2 (UniProt P29323)"
  phosphorylation enrichment: 3.07
- polymer_sequence: "SDTGQYQCLVF [AXL_Y115]"
  measured_target: "EPHB2 (UniProt P29323)"
  phosphorylation enrichment: 0.9
- polymer_sequence: "CSPLLYKVIMS [OR8D4_Y132_R133K]"
  measured_target: "EPHB2 (UniProt P29323)"
  phosphorylation enrichment: 0.648
- polymer_sequence: "RVDRDYVLKST [HTATIP2_Y111_A116T]"
  measured_target: "EPHB2 (UniProt P29323)"
  phosphorylation enrichment: 0.659
- polymer_sequence: "TFRPPYFHRDC [HGD_Y333_N337D_YF]"
  measured_target: "EPHB2 (UniProt P29323)"
  phosphorylation enrichment: 0.431
- polymer_sequence: "SSAKTYSRMRL [NBEAL2_Y1835_E1833K]"
  measured_target: "EPHB2 (UniProt P29323)"
  phosphorylation enrichment: 0.366
- polymer_sequence: "AEARMYGVLPW [PLP1_Y207_D203E]"
  measured_target: "EPHB2 (UniProt P29323)"
  phosphorylation enrichment: 1.05
- polymer_sequence: "KENITYMKREQ [L1TD1_Y24]"
  measured_target: "EPHB2 (UniProt P29323)"
  phosphorylation enrichment: 0.514
- polymer_sequence: "TENAGYFFQVS"
  measured_target: "EPHB2 (UniProt P29323)"
  phosphorylation enrichment: 0.546
- polymer_sequence: "FLAVGYHKLHI [IDS_Y225_P228L]"
  measured_target: "EPHB2 (UniProt P29323)"
  phosphorylation enrichment: 0.575
- polymer_sequence: "LMLVLYGRIFR [HTR1A_Y215]"
  measured_target: "EPHB2 (UniProt P29323)"
  phosphorylation enrichment: 0.958
- polymer_sequence: "PEAALYGRFTF [FYN_Y440_I445F]"
  measured_target: "EPHB2 (UniProt P29323)"
  phosphorylation enrichment: 1.2
- polymer_sequence: "LEGAKYVSHGA [ASS1_Y113_R108L]"
  measured_target: "EPHB2 (UniProt P29323)"
  phosphorylation enrichment: 1.03
- polymer_sequence: "SVVVPSEPPEV [TP53_Y220_Y220S]"
  measured_target: "EPHB2 (UniProt P29323)"
  phosphorylation enrichment: 0.642

###

Biological target: EPHB2 (UniProt P29323)
Test: phosphorylation enrichment, bacterial display (enrichment ratio); higher = better substrate or ligand; peptides without Tyr show the background

- polymer_sequence: "FLAVGYHKPRI [IDS_Y225_H229R]"
  phosphorylation enrichment: 0.44
- polymer_sequence: "SVVVRYEPPEV [TP53_Y220_P219R]"
  phosphorylation enrichment: 0.503
- polymer_sequence: "EIRTQYEAMAS [GFAP_Y242]"
  phosphorylation enrichment: 0.577
- polymer_sequence: "SSDKVCAHQMV [MLH1_Y379_Y379C]"
  phosphorylation enrichment: 0.443
- polymer_sequence: "TQTPPYVKKHP [LARP1B_Y457]"
  phosphorylation enrichment: 0.39
- polymer_sequence: "FQEKGYNKELR [CHRND_Y38]"
  phosphorylation enrichment: 0.268
- polymer_sequence: "KKYPDYIQIAR [SGMS2_Y59_M64R]"
  phosphorylation enrichment: 1.22
- polymer_sequence: "EVVGRYSVHNA [MLH1_Y183]"
  phosphorylation enrichment: 0.451
- polymer_sequence: "EHTTLYSNNST [KANSL1_Y223]"
  phosphorylation enrichment: 0.53
- polymer_sequence: "SLHPGYNFRYA [P2RX7_Y291_Y288H]"
  phosphorylation enrichment: 0.497
- polymer_sequence: "LPHVIYCRLWR [SMAD2_Y128]"
  phosphorylation enrichment: 0.758
- polymer_sequence: "IEPVIDVVQRR [ANOS1_Y217_Y217D]"
  phosphorylation enrichment: 0.566
- polymer_sequence: "ETKKQYNSFTY [TMED3_Y85_D86N]"
  phosphorylation enrichment: 0.434
- polymer_sequence: "NHRNQYQALKT [CLSPN_Y887_P892T]"
  phosphorylation enrichment: 0.43
- polymer_sequence: "KVVVPYEPPEV [TP53_Y220_S215K]"
  phosphorylation enrichment: 0.573
- polymer_sequence: "RDGDRYFKGIV [DCX_Y64_N60D]"
  phosphorylation enrichment: 0.427
- polymer_sequence: "QQTFTYDSGIH [JUP_Y22_YF]"
  phosphorylation enrichment: 1.33
- polymer_sequence: "PVQAVYQKVVA [HBB_Y131_A130V]"
  phosphorylation enrichment: 0.578
- polymer_sequence: "IGRGSYAKVLL [PRKCZ_Y263]"
  phosphorylation enrichment: 0.367
- polymer_sequence: "AASTDYFKRGD [PDHA1_Y242_YF]"
  phosphorylation enrichment: 0.454
- polymer_sequence: "LGSVVYAQSKE [KCNQ2_Y226_H228Q]"
  phosphorylation enrichment: 0.97
- polymer_sequence: "DVMDFYKTLRG [NR3C1_Y30]"
  phosphorylation enrichment: 0.423
- polymer_sequence: "AFGEVYEGQVS [ALK_Y1131]"
  phosphorylation enrichment: 0.64
- polymer_sequence: "VVSLFYGTALF [OR10C1_Y251_M246V]"
  phosphorylation enrichment: 0.812
- polymer_sequence: "TDISLYPSGGT [TENM4_Y399_V396I]"
  phosphorylation enrichment: 0.632
- polymer_sequence: "HSRTRYERNIE [F2_Y434]"
  phosphorylation enrichment: 0.531
- polymer_sequence: "DYLEKYYKFGS [NNMT_Y24]"
  phosphorylation enrichment: 0.436
- polymer_sequence: "FRQLQYCPSVE [CTNND2_Y508_YF]"
  phosphorylation enrichment: 0.605
- polymer_sequence: "GVRYTYTIDGS [DCX_Y105_I104T]"
  phosphorylation enrichment: 0.623
- polymer_sequence: "GIVEDYRPRFY [ACVRL1_Y421_P424R]"
  phosphorylation enrichment: 0.615
- polymer_sequence: "DDERGYRRVRS [GIGYF2_Y268]"
  phosphorylation enrichment: 0.398
- polymer_sequence: "AAVPAYDKIQV [STXBP2_Y401_R405Q]"
  phosphorylation enrichment: 0.417
- polymer_sequence: "QGIYGYHHHMQ [UFSP2_Y287_Y290H]"
  phosphorylation enrichment: 4.59
- polymer_sequence: "EAIMTYVSSFF [ACTN4_Y260_K255E_YF]"
  phosphorylation enrichment: 0.726
- polymer_sequence: "TKQLTYEEQFL [PIK3C3_Y310_D314Y_YF]"
  phosphorylation enrichment: 0.622
- polymer_sequence: "AKIDGYIISFR"
  phosphorylation enrichment: 0.412
- polymer_sequence: "IHFAIYFLKFS [ARMC9_Y107_L108F_YF]"
  phosphorylation enrichment: 0.576
- polymer_sequence: "CTTIHYNFMSN [TP53_Y234_C238S_YF]"
  phosphorylation enrichment: 0.58
- polymer_sequence: "TKFRNYLIPNG [CYP2C8_Y379_K383N]"
  phosphorylation enrichment: 0.736
- polymer_sequence: "CRWKRYQCSHD [GDPD5_Y30_R32C]"
  phosphorylation enrichment: 0.493
- polymer_sequence: "SHRQDYLVGNK [GSTA1_Y147_G144R]"
  phosphorylation enrichment: 0.431
- polymer_sequence: "SVESPYGSVTF [NDRG2_Y47_T45S]"
  phosphorylation enrichment: 0.862
- polymer_sequence: "KIFPEYLSNWT [AIFM1_Y347_L344F]"
  phosphorylation enrichment: 0.512
- polymer_sequence: "YGMSTYITRED [FNDC3B_Y180]"
  phosphorylation enrichment: 0.584
- polymer_sequence: "HSGIYYKPESL [L2HGDH_Y103]"
  phosphorylation enrichment: 6.24
- polymer_sequence: "FPKVRYHWLVL [APTX_Y214_A212V_YF]"
  phosphorylation enrichment: 0.672
- polymer_sequence: "VCHELYNTIRD [PBRM1_Y54]"
  phosphorylation enrichment: 0.608
